- TARGET SYSTEM: rat brain cortical membranes ([35S]-TBPS binding; GABAA receptor)
- PROTOCOL DETAILS: Steroid inhibition of [35S]-TBPS binding
- STATED CONDITIONS: 3 nM [35S]-TBPS, in the presence of 5 mM GABA, 90 min at room temp
Kindly state IC50 for each of the entries shown.

[2H]C([2H])([2H])[C@@]1(O)CC[C@H]2[C@H](CC[C@@H]3[C@@H]2CC[C@]2(C)[C@@H](C(=O)Cn4cc(C#N)cn4)CC[C@@H]32)C1 = < 10 nM

Input [2H][C@]1(C(=O)Cn2cc(C#N)cn2)CC[C@H]2[C@@H]3CC[C@@H]4C[C@](C)(O)CC[C@@H]4[C@H]3CC[C@@]21C , output reported IC50.
< 10 nM
